Target: fIL, fluorescently labelled H14 foldamer IL
Experiment: fluorescence polarisation; direct FP: S100 protein diluted in 50 nM labeled foldamer, 20 mM HEPES pH 7.5, 150 mM NaCl, 1 mM CaCl2, 0.5 mM TCEP, 0.01% Tween20; quadratic fit (ProFit); detection threshold Kd 1 mM
experimental-readout: pKd
Kindly note that pKd refers to -log10 of the concentration in mol/L and answer with the value alone.

Dear colleague, I am looking for the recorded pKd of the following binder: S100B (natural protein) MSELEKAMVALIDVFHQYSGREGDKHKLKKSELKELINNELSHFLEEIKEQEVVDKVMETLDNDGDGECDFQEFMAFVAMVTTACHEFFEHE 4.20
